system-name: SHP2 protein (Homo sapiens, UniProt Q06124)
assay-text: Measurement of SHP2 protein degradation in NCI-H358 cells (western blotting)
Assay type: cell-based
Set-up: endogenous in cells; host or cells: NCI-H358
conditions: 0.1 μM, harvested after 24 hours
What SHP2% degradation was measured for each of the following?
Answers are plain numbers, in %.

Please report SHP2% degradation for every entry that follows.
1. Cc1cc(C(C(=O)N2C[C@H](O)C[C@H]2C(=O)NCc2ccc(-c3scnc3C)cc2OC2CCN(C(=O)C3CCN(c4nccc(Sc5cnc(N6CCC(C)(N)CC6)cn5)c4Cl)CC3)CC2)C(C)C)on1 (stereo partly shown) [Example 94]
2. Cc1ncsc1-c1ccc(CNC(=O)[C@@H]2C[C@@H](O)CN2C(=O)[C@H](C(C)C)n2cc(C3CC3)nn2)c(OC2CCN(C(=O)C3CCN(c4nccc(Sc5cnc(N6CCC(C)(N)CC6)cn5)c4Cl)CC3)CC2)c1 [Example 102]
3. CC(=O)N[C@H](C(=O)N1C[C@H](O)C[C@H]1C(=O)N[C@@H](C)c1ccc(-c2scnc2C)cc1O[C@H]1CC[C@H](C(=O)N2CC(Nc3cccc(Sc4cnc(N5CCC(C)(CN)CC5)cn4)c3Cl)C2)CC1)C(C)(C)C [Example 48]
4. CC(=O)N[C@H](C(=O)N1C[C@H](O)C[C@H]1C(=O)NCc1ccc(-c2scnc2C)cc1OC1CCN(C(=O)C2CCN(c3cccc(Sc4cnc(N5CCC(C)(CN)CC5)cn4)c3Cl)CC2)CC1)C(C)(C)C [Example 82]

Result:
1: 100.0; 2: 99.8; 3: 98.3; 4: 97.4

----------
system-name: SHP2 protein (Homo sapiens, UniProt Q06124)
assay-text: Measurement of SHP2 protein degradation in NCI-H358 cells (western blotting)
Assay type: cell-based
Design: endogenous in cells; host or cells: NCI-H358
conditions: 0.1 μM, harvested after 24 hours
experimental-readout: SHP2% degradation (%)
Give bare numbers, in %.

Check out these entries, answers already filled in.
CC(=O)N[C@H](C(=O)N1C[C@H](O)C[C@H]1C(=O)NCc1ccc(-c2scnc2C)cc1OC1CCN(C(=O)C2CCN(c3nccc(Sc4nc(CO)c(N5CCC(C)(CN)CC5)nc4C)c3Cl)CC2)CC1)C(C)(C)C :: 99.6
Cc1ncsc1-c1ccc(CNC(=O)[C@@H]2C[C@@H](O)CN2C(=O)[C@H](C(C)C)n2cc(C3CC3)nn2)c(OC2CCN(C(=O)C3CCN(c4nccc(Sc5cnc(N6CCC(C)(CN)CC6)cn5)c4Cl)CC3)CC2)c1 :: 97.4
CC(=O)N[C@H](C(=O)N1C[C@H](O)C[C@H]1C(=O)NCc1ccc(-c2scnc2C)cc1OC1CCN(C(=O)C2CCN(c3nccc(Sc4cnc(N5CCC(C)(N)CC5)cn4)c3Cl)CC2)CC1)C(C)(C)C :: 98.7

Consider Cc1ncsc1-c1ccc(CNC(=O)[C@@H]2C[C@@H](O)CN2C(=O)[C@@H](NC(=O)C2(F)CC2)C(C)(C)C)c(OC2CCN(C(=O)C3CCN(c4nccc(Sc5cnc(N6CCC7(CC6)CO[C@@H](C)[C@H]7N)cn5)c4Cl)CC3)CC2)c1 . Its measured SHP2% degradation is 96.9

----------
What SHP2% degradation was measured for each of the following?
system-name: SHP2 protein (Homo sapiens)
Sequence (Q06124 1-593): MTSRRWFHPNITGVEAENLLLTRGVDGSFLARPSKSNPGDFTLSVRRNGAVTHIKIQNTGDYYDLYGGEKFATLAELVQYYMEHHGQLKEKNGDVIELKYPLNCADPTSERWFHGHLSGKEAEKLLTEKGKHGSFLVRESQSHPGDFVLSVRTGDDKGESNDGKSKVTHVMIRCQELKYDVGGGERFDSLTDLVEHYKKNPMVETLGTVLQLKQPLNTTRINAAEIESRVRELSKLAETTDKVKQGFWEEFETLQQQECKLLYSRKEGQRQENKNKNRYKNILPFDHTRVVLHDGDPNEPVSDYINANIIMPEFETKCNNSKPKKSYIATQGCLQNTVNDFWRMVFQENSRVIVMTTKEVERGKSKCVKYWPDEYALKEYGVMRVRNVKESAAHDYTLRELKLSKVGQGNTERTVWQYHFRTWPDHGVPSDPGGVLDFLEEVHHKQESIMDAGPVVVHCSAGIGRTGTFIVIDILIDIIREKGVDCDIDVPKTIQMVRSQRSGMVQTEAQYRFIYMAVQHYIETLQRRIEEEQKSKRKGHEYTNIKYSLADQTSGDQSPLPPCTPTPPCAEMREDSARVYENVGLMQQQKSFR
assay-text: Measurement of SHP2 protein degradation in MV-4-11 cells (western blotting)
Format: cell-based
Design: endogenous in cells
conditions: 0.01 μM, harvested after 24 hours
One number for each entry, in %.

Check out these entries, answers already filled in.
CC(=O)N[C@H](C(=O)N1C[C@H](O)C[C@H]1C(=O)N[C@@H](C)c1ccc(-c2scnc2C)cc1OC1CCN(C(=O)C2CCN(c3nccc(Sc4cnc(N5CCC(C)(CN)CC5)cn4)c3Cl)CC2)CC1)C(C)(C)C :: 95.8
Cc1ncsc1-c1ccc(CNC(=O)[C@@H]2C[C@@H](O)CN2C(=O)[C@@H](NC(=O)C2(F)CC2)C(C)(C)C)c(OCCCCCCN2CCC(CNc3cccc(Sc4cnc(N5CCC(C)(CN)CC5)cn4)c3Cl)CC2)c1 :: −33.4

Please report SHP2% degradation for every entry that follows.
1. Cc1ncsc1-c1ccc(CNC(=O)[C@@H]2C[C@@H](O)CN2C(=O)[C@@H](NC(=O)C2(F)CC2)C(C)(C)C)c(OCCN2CCC(C(=O)N3CCN(c4nccc(Sc5cnc(N6CCC(C)(CN)CC6)cn5)c4Cl)CC3)CC2)c1
2. Cc1ncsc1-c1ccc(CNC(=O)[C@@H]2C[C@@H](O)CN2C(=O)[C@@H](NC(=O)C2(F)CC2)C(C)(C)C)c(OCCN2CCN(C(=O)C3CN(c4nccc(Sc5cnc(N6CCC(C)(CN)CC6)cn5)c4Cl)C3)CC2)c1
3. Cc1ncsc1-c1ccc(CNC(=O)[C@@H]2C[C@@H](O)CN2C(=O)[C@@H](NC(=O)C2(F)CC2)C(C)(C)C)c(O[C@H]2CC[C@H](C(=O)N3CC(Nc4nccc(Sc5cnc(N6CCC(C)(CN)CC6)cn5)c4Cl)C3)CC2)c1

Result:
[20.5, 70.4, 78.8]
